target: human E3 ligase component cereblon (CRBN) (Homo sapiens, UniProt Q96SW2); test: Cereblon (CRBN) target engagement, NanoBRET TE Intracellular E3 Ligase Assay in transfected HEK-293T cells; details: read-out: CRBN Binding EC50
Sequence (Q96SW2 whole entry): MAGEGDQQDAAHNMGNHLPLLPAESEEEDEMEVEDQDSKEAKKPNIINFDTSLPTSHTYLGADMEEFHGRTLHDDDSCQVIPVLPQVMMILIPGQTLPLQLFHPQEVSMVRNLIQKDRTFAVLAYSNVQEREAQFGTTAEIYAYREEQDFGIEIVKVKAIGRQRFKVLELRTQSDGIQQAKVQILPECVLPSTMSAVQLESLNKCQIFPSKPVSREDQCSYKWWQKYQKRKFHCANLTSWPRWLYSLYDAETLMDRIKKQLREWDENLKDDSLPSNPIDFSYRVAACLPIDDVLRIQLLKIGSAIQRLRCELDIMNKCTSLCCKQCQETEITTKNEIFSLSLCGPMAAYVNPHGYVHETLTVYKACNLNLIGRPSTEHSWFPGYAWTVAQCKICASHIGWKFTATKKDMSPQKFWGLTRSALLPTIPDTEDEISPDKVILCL
Sequence (Q16531 whole entry partner): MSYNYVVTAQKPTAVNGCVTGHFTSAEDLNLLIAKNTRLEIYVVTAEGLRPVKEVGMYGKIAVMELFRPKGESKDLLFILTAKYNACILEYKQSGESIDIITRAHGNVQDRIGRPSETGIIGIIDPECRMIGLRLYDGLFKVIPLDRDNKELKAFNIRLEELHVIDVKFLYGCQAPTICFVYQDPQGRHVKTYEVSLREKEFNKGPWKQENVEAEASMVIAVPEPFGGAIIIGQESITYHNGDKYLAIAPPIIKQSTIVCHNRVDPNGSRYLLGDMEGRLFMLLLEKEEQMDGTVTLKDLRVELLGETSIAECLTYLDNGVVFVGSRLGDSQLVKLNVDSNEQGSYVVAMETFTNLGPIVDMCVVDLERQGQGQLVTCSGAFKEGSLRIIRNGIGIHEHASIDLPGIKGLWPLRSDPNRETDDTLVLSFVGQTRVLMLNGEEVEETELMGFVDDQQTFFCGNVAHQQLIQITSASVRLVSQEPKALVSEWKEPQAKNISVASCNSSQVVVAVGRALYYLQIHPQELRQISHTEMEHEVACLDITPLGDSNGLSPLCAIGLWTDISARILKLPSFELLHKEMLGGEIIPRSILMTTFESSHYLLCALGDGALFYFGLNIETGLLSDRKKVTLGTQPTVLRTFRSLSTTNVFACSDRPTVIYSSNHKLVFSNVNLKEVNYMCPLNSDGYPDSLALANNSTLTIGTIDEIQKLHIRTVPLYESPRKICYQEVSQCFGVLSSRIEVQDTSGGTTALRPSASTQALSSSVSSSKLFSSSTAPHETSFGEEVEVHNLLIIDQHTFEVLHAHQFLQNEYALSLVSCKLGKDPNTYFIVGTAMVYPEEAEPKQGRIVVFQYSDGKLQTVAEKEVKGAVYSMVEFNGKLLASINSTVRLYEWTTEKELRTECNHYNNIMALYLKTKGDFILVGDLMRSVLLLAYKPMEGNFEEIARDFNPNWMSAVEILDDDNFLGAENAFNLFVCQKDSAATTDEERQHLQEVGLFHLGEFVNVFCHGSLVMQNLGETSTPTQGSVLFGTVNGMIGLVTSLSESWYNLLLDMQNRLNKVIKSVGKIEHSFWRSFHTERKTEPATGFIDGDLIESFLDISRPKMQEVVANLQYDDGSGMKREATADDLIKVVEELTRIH
pEC50: −log10 of the molar value.

compound | pEC50
O=C1CCC(N2Cc3cc(O[C@H]4CCCC[C@@H]4N4CC(c5ccncc5F)C4)ccc3C2=O)C(=O)N1 (mixture of isomers) [Compound 167-B] | 7.13
O=C1CCC(N2Cc3cc(O[C@H]4CCCC[C@H]4N4CC(c5ccncc5)C4)ccc3C2=O)C(=O)N1 (single isomer, unassigned) [Compound 136-B] | 7.47
Cc1cnc(C2CN([C@H]3CCCC3Oc3ccc4c(c3)CN(C3CCC(=O)NC3=O)C4=O)C2)o1 (mixture of isomers) [Compound 161-B] | 6.92
O=C1CCC(N2Cc3cc(O[C@H]4CCCC[C@@H]4N4CC(c5ccc6c(c5)OCCO6)C4)ccc3C2=O)C(=O)N1 (stereo partly drawn) | 8.52
Cc1cnc(C2CN([C@H]3CCCC[C@H]3Oc3ccc4c(c3)CN(C3CCC(=O)NC3=O)C4=O)C2)o1 (mixture of isomers) | 7.44
O=C1CCC(N2Cc3cc(O[C@@H]4CCCC[C@@H]4N4CC(c5ncc(C(F)(F)F)cn5)C4)ccc3C2=O)C(=O)N1 (single isomer, unassigned) [Compound 118-B] | 8.40
